Known MBC of a selection of molecules
tested on: VISA LIM 3 (NRS37); experiment: MIC/MBC broth microdilution, NRS37 (VISA LIM 3); assay type: cell-based; conditions: Staphylococcus aureus; Table 8; NRS37 (VISA); read-out: MBC
Quick note: give the figure in µM, leave out the unit.

Reference set, count: 6
smiles string	MBC [µM]
C/C(=N/NC(=N)N)c1sc(-c2ccc(-c3ccc(C(F)(F)F)cc3)cc2)nc1C	8
CCCCC#Cc1ccc(-c2nc(C)c(/C(C)=N/NC(=N)N)s2)cc1	4
CCCCc1ccc(-c2nc(C)c(/C(C)=N/NC(=N)N)s2)cc1	8
C/C(=N/NC(=N)N)c1sc(-c2ccc(-c3cccc4ccccc34)cc2)nc1C	4
CC(=O)c1ccc(-c2ccc(-c3nc(C)c(/C(C)=N\NC(=N)N)s3)cc2)cc1	16
C/C(=N\NC(=N)N)c1sc(-c2ccc(N)cc2)nc1C	128

Kindly review the next molecule as well.
Query: Note MBC for the molecule shown: C/C(=N/NC(=N)N)c1sc(-c2ccc(-c3ccc(F)cc3)cc2)nc1C
Response: 16

###

test system: MRSA ATCC 43300; assay: MIC/MBC broth microdilution, MRSA ATCC 43300; format: cell-based, Staphylococcus aureus; conditions: Staphylococcus aureus; Table 4; MRSA ATCC 43300; 64 μM down to 0.5 μM; 37° C., 19 hours; read-out: Minimum Inhibitory Concentration
recorded endpoint: MIC

smiles string	MIC
CCCCc1ccc(-c2nc(C)c(/C(C)=N/NC(=N)N)s2)cc1	4 µM

Query: # lookup: MRSA ATCC 43300 MIC, key = CCCCc1ccc(-c2nc(C)c(-c3nnn[nH]3)s2)cc1
Response: > 64 µM

Query: # lookup: MRSA ATCC 43300 MIC, key = CCCCc1ccc(-c2nc(C)c(C(=O)NNC(=O)c3sc(-c4ccc(CCCC)cc4)nc3C)s2)cc1
Response: > 64 µM

Query: # lookup: MRSA ATCC 43300 MIC, key = CCCCc1ccc(-c2nc(C)c(C(=O)NNC(=N)N)s2)cc1
Response: > 64 µM

Query: # lookup: MRSA ATCC 43300 MIC, key = CCCCC#Cc1ccc(-c2nc(C)c(/C(C)=N/NC(=N)N)s2)cc1
Response: 4 µM

Query: # lookup: MRSA ATCC 43300 MIC, key = CCCCc1ccc(-c2nc(C)c(C(N)=O)s2)cc1
Response: > 64 µM

###

test system: murine macrophage cells (J774.A1); assay: In vitro cytotoxicity analysis, MTS assay; type: cell-based; conditions: 16 μM, 24 hours

compound	toxicity toward murine macrophage cells
C/C(=N\NC(=N)N)c1sc(-c2ccc(C(C)(C)C)cc2)nc1C [Compound 1g]	exhibited toxicity
C/C(=N\NC(=N)N)c1sc(-c2ccc3ccccc3c2)nc1C [Compound 1h]	exhibited toxicity

###

system: NRS119; test: MIC/MBC broth microdilution, NRS119; format: cell-based; settings: Staphylococcus aureus; Table 8; NRS119; read-out: MIC
Known MIC of a selection of molecules
Quick note: give the figure in µM, leave out the unit.

Query: Note MIC for the molecule shown: CC(=O)c1ccc(-c2ccc(-c3nc(C)c(/C(C)=N\NC(=N)N)s3)cc2)cc1
Response: 16

Query: Note MIC for the molecule shown: C/C(=N/NC(=N)N)c1sc(-c2ccc(-c3cccc4ccccc34)cc2)nc1C
Response: 4

Query: Note MIC for the molecule shown: C/C(=N/NC(=N)N)c1sc(-c2ccc(-c3ccc(F)cc3)cc2)nc1C
Response: 16

Query: Note MIC for the molecule shown: C/C(=N/NC(=N)N)c1sc(-c2ccc(-c3ccc(C(F)(F)F)cc3)cc2)nc1C
Response: 16

Query: Note MIC for the molecule shown: C/C(=N\NC(=N)N)c1sc(-c2ccc(N)cc2)nc1C
Response: 64

###

Known MIC of a selection of compounds
system: NRS119; assay: MIC/MBC broth microdilution, NRS119; assay type: cell-based; details: Staphylococcus aureus; Table 8; NRS119; read-out: MIC

smiles string	MIC
CC(=O)c1sc(-c2ccc(-c3ccc(F)cc3)cc2)nc1C	> 128 µM
CC(=O)c1sc(-c2ccc(-c3cccc4ccccc34)cc2)nc1C	> 128 µM

Kindly review the next compound as well.
Query: Note MIC for the compound shown: CC(=O)c1sc(-c2ccc(-c3ccc(C(F)(F)F)cc3)cc2)nc1C
Response: > 128 µM
